Test: P. aeruginosa biofilm formation inhibitors, primary screen, strain PAO1, LB-PBS medium, absorbance 600 nm (AID 1176); also: test concentration not given here
Conditions: P. aeruginosa PAO1 growth/biofilm, A600, 12 h; higher = more signal
PARAMETER MEASURED: z-score

| COMPOUND | PARAMETER MEASURED | EXPERIMENTAL VALUE |
| --- | --- | --- |
| COCCOC(=O)N1C(=O)[C@@]2(c3cc(C#Cc4ccc(OC)cc4)ccc31)[C@H](c1ccc(OCCO)cc1)N1[C@H](c3ccccc3)[C@H](c3ccccc3)OC(=O)[C@H]1[C@@H]2C(=O)N1CCN(c2ncccn2)CC1 | z-score | 1.9 |
| C[C@H]1NC(=O)[C@@]23C(=O)N[C@@H](Cc4ccccc4)C2[C@H](C)[C@@]2(C)O[C@H]2C3/C=C/C/C=C\CNC(=O)[C@@H]2CCCN2C1=O (some centres not stated) | z-score | -0.0126 |
| O=C(N1CCCCC1)[C@]1(Cc2ccccc2)N=C(c2ccc(OCCCO)cc2)O[C@@H]1c1ccccc1 | z-score | 0.208 |
| CC(C)=CCCC(C)=CC(O)C1C=CC2C(=O)N(C)C(=O)C2N1Nc1ccccc1 (configuration not stated) | z-score | 1.51 |
| Cc1nc2cc(Br)ccc2c(=O)o1 | z-score | -0.214 |
| COCCOC(=O)N1C(=O)[C@@]2(c3ccccc31)[C@H](c1ccccc1OCCO)N1[C@H](c3ccccc3)[C@H](c3ccccc3)OC(=O)[C@H]1[C@@H]2C(=O)N1CCN(c2ncccn2)CC1 | z-score | 3.61 |
| CC(C)C(CO)N1C(=O)[C@@H]2C3C(=O)OCCC/C=C\[C@H]3OC23C=CCN(CCN2CCOCC2)C(=O)[C@@H]13 (some centres not stated) | z-score | 0.109 |
